- assay details: Toxicokinetics, 14-day intranasal study in rats (Study 700041)
- Format: in vivo
- test conditions: female, Sprague Dawley, rat, plasma, inhaled or intranasal, 20 mg/kg/day, Day 14, Female
metric name: Cmax (ng/mL)
Output spec: scalar in ng/mL, unitless text.

Record request: Cmax value, item COc1ccc2[nH]cc(CCN(C)C)c2c1
795

----------
- assay details: Toxicokinetics, 14-day intranasal study in dogs (Study 62959)
- Type: in vivo
- test conditions: female, beagle, dog, plasma, inhaled or intranasal, 0.4 mg/kg/day, Day 1, Female, read-out: AUCINF_obs
metric name: AUC(0-inf) (ng·h/mL)
Answer format: numeric, ng·h/mL implied, no suffix.

GET /values?readout=AUC(0-inf)&item= COc1ccc2[nH]cc(CCN(C)C)c2c1
106

Values compiled from patent US11518742B2.
